Data credit: patent US20180362652A1

Assay system: T1, monomeric huBDCA2 ectodomain (human, UniProt Q8WTT0 45-213)
T1 construct: Prepared by proteolytic cleavage of the purified muIgG2a Fc-huBDCA2 fusion protein (pEAG2423); also called human BDCA2 ectodomain; human BDCA2 ECD
T1 sequence: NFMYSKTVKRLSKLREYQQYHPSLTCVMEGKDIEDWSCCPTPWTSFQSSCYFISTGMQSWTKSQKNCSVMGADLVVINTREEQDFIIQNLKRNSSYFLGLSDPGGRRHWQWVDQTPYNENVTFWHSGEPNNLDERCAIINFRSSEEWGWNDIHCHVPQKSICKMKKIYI
Assay remarks: Octet, mAb from conditioned medium on anti-human Fc tips, monomeric huBDCA2 in solution
Reported property: kon (M⁻¹ s⁻¹)
Give just the number in M⁻¹ s⁻¹; leave the unit off.

Incoming: For the binder hu24F4 H4/L1 S95T (antibody, human IgG1, V domains shown, Human IgG1/kappa; conditioned medium of 293E cells; also called H4-L1-C95T (YL750/YL746); hu24F4 H4/L1 C95T) VH: DVQLVESGGGLVKPGGSLRLSCAASGFTFSTYTMSWVRQAPGKGLEWVATISPGDSFGYYYPDSVQGRFTISRDNAKNSLYLQMNSLRAEDTAVYYCTRDIYYNYGAWFAYWGQGTLVTVSS VL: DIQLTQSPSSLSASVGDRVTITCKASQSVDYDGDSYMNWYQQKPGKAPKLLIYAASTLESGVPSRFSGSGSGTDFTLTISSLQPEDFATYYCQQTNEDPRTFGQGTKVEIK , report kon.
Outgoing: 944000

Incoming: For the binder hu24F4 H4/L1 S95C (antibody, human IgG1, V domains shown, Human IgG1/kappa; conditioned medium of 293E cells; also called H4-L1-S95C (YL749/YL746)) VH: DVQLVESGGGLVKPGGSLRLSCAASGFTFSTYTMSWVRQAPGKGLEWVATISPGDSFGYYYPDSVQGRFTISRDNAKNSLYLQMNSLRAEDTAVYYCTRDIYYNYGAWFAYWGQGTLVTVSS VL: DIQLTQSPSSLSASVGDRVTITCKASQSVDYDGDSYMNWYQQKPGKAPKLLIYAASTLESGVPSRFSGSGSGTDFTLTISSLQPEDFATYYCQQCNEDPRTFGQGTKVEIK , report kon.
Outgoing: 967000

Incoming: For the binder hu24F4 H4/L1 (C95S) (antibody, V domains shown, Human IgG1/kappa; also called 24F4-H4/L1 (YL740/YL746); 24F4S) VH: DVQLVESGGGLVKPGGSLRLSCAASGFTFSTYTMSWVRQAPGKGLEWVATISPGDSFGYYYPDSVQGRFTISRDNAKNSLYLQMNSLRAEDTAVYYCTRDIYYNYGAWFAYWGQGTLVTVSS VL: DIQLTQSPSSLSASVGDRVTITCKASQSVDYDGDSYMNWYQQKPGKAPKLLIYAASTLESGVPSRFSGSGSGTDFTLTISSLQPEDFATYYCQQSNEDPRTFGQGTKVEIK , report kon.
Outgoing: 727000

Incoming: For the binder hu24F4 H4/L1 S95V (antibody, human IgG1, V domains shown, Human IgG1/kappa; conditioned medium of 293E cells; also called H4-L1-C95V (YL752/YL746)) VH: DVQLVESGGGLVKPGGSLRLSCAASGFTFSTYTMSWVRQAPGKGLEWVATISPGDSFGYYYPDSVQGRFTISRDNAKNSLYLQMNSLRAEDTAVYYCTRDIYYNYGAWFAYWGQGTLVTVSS VL: DIQLTQSPSSLSASVGDRVTITCKASQSVDYDGDSYMNWYQQKPGKAPKLLIYAASTLESGVPSRFSGSGSGTDFTLTISSLQPEDFATYYCQQVNEDPRTFGQGTKVEIK , report kon.
Outgoing: 933000
